Items are presented alongside their recorded pIC50.
# study target: aryl hydrocarbon receptor (AhR) (Homo sapiens)
# Construct: DRE-Luc HepG2 cells subcultured in a 225 cm^2 flask; endogenous in cells
# Sequence (P35869 11-848): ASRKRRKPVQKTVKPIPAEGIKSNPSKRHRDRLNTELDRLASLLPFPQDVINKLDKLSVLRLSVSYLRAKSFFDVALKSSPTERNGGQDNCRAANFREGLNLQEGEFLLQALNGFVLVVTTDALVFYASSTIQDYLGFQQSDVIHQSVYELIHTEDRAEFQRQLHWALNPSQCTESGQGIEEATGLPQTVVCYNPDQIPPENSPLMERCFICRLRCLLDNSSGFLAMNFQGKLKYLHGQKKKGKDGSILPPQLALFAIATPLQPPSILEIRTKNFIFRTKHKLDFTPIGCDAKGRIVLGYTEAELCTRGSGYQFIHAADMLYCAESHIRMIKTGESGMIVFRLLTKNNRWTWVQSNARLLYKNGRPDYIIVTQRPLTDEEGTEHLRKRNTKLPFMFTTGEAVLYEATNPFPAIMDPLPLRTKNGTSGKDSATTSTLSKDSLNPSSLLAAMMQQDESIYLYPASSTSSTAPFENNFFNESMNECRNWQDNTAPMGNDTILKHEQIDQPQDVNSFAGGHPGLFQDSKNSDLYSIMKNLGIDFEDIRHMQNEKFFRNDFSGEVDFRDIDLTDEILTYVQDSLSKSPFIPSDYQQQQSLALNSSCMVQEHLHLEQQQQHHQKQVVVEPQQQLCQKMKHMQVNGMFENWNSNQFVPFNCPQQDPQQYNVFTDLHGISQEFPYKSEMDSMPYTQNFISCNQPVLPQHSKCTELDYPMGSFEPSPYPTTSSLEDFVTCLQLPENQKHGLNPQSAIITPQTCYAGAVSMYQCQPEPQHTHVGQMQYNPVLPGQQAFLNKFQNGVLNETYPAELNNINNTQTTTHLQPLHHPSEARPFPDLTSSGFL
# protocol description: AhR reporter gene assay (aryl hydrocarbon receptor antagonist activity, DRE-Luc HepG2 cells, TCDD-stimulated luciferase)
Scale explanation: pIC50 corresponds to minus log10 of a concentration expressed in moles per litre.

As a guide, the following entries are already answered.
{"columns": ["compound", "study target", "pIC50"],
 "data": [
  ["CC1(C)COc2nc3c(NCCc4c[nH]c5ccccc45)nc(-c4cncc(C(F)F)c4)nc3n21 [Example 101]", "aryl hydrocarbon receptor (AhR) (Homo sapiens)", 7.54],
  ["CC1(C)COc2nc3c(NCCc4ccc(O)c(-c5cc(F)cc(F)c5)c4)nc(-c4cncc(F)c4)nc3n21 [Example 12]", "aryl hydrocarbon receptor (AhR) (Homo sapiens)", 7.92],
  ["CCc1cccc(-c2cc(CCNc3nc(-c4cncc(F)c4)nc4c3nc3n4C(C)(C)CO3)ccc2O)c1 [Example 15]", "aryl hydrocarbon receptor (AhR) (Homo sapiens)", 8.26]
]}

// query I would be grateful if you could share the reported pIC50 for CC1(C)CSc2nc3c(NCCc4ccc(O)c(-c5cccc(F)c5)c4)nc(-c4cncc(F)c4)nc3n21 [Example 9] .
// result 9.49

// query I would be grateful if you could share the reported pIC50 for CC1(C)COc2nc3c(NCCc4ccc(O)c(-c5cc(F)cc(C#N)c5)c4)nc(-c4cncc(C#N)c4)nc3n21 [Example 69] .
// result 7.89

// query I would be grateful if you could share the reported pIC50 for Cc1ccccc1-c1cc(CCNc2nc(-c3cncc(F)c3)nc3c2nc2n3C(C)(C)CO2)ccc1O [Example 40] .
// result 7.40

// query I would be grateful if you could share the reported pIC50 for CC1(C)COc2nc3c(NCCc4ccc(O)c(-c5ccccc5F)c4)nc(-c4cncc(F)c4)nc3n21 [Example 2] .
// result 8.02
